system: ACHN renal; experiment: NCI tumour cell line growth inhibition, 48 h
This section presents compounds with their documented TGI values.

{"columns": ["Compound", "Assay target", "TGI"],
 "data": [
  ["O=[N+]([O-])C(/C(Cl)=C(/Cl)N1CCOCC1)=C1\\NCCO1", "ACHN renal", "> 100 µM"],
  ["CCC12C=CCN3CC[C@]4(C(=C(C(=O)OC)[C@@H]1Nc1ncnc5c1ncn5C1OC(COC(C)=O)C(OC(C)=O)C1OC(C)=O)Nc1ccccc14)C32 (stereo partly drawn)", "ACHN renal", "5.69 µM"],
  ["Oc1ccc2c(c1)-c1c(c3cc(O)ccc3n1CCN1CCOCC1)CC2", "ACHN renal", "> 100 µM"],
  ["CN(Cc1c2ccccc2cc2ccccc12)S(=O)(=O)c1ccc(-c2c3nc(c(-c4ccc(S(=O)(=O)N(C)Cc5c6ccccc6cc6ccccc56)cc4)c4ccc([nH]4)c(-c4ccc(S(=O)(=O)N(C)Cc5c6ccccc6cc6ccccc56)cc4)c4nc(c(-c5ccc(S(=O)(=O)N(C)Cc6c7ccccc7cc7ccccc67)cc5)c5ccc2[nH]5)C=C4)C=C3)cc1", "ACHN renal", "> 100 µM"],
  ["CCOC(=O)c1cnc2ccc(Cl)cc2c1NCCCN(C)C", "ACHN renal", "> 100 µM"],
  ["Cc1cccc2c1C(=O)C1(Cc3ccccc3C1=O)C2 (stereo not drawn)", "ACHN renal", "> 100 µM"],
  ["COc1ccc(CN2CCc3c(Cl)nc(N)nc3C2=O)c(OC)c1", "ACHN renal", "48.5 µM"],
  ["COCn1c2ccc(OC(C)=O)cc2c2c(=O)oc(C)nc21", "ACHN renal", "> 100 µM"],
  ["COc1c(O)c2ccccc2c2cc(O)ccc12", "ACHN renal", "14.5 µM"],
  ["CCOC(=O)c1ccc(-c2cc(C)[nH]n2)[nH]1", "ACHN renal", "> 100 µM"],
  ["O=c1[nH]nc(-c2ccccc2)c(-c2ccccc2)c1-n1nc(-c2ccccc2)c2ccccc2c1=O", "ACHN renal", "> 100 µM"],
  ["CCN(CC)CCn1c(=N)n(CC(O)c2ccc(Cl)c(Cl)c2)c2ccccc21 (stereo not drawn)", "ACHN renal", "24.4 µM"],
  ["O=C(O)CC(NC(=O)Nc1ccc([N+](=O)[O-])cc1)C(=O)Nc1ccc([N+](=O)[O-])cc1 (stereo not drawn)", "ACHN renal", "> 100 µM"],
  ["CC(C)CC(=O)NC(Nc1ccc(S(=O)(=O)Nc2ncccn2)cc1)(C(F)(F)F)C(F)(F)F", "ACHN renal", "> 100 µM"],
  ["CCOC(=O)C1=CN=C2C(=O)N(c3ccccc3)N(C)C2(C)C1=N (stereo not drawn)", "ACHN renal", "> 100 µM"],
  ["CN(C(=O)C12C3C4(C(=O)O)C1(C(=O)N(C)C(C)(C)C)C1C2(C(=O)O)C3(C(=O)N(C)C(C)(C)C)C14C(=O)N(C)C(C)(C)C)C(C)(C)C (stereo not drawn)", "ACHN renal", "> 100 µM"],
  ["CN(C)C1(C#N)CCC2(CC1)OCCO2", "ACHN renal", "> 100 µM"],
  ["C[C@]12CC[C@H]3[C@@H](CCC4=CC(=O)C=C[C@@]43O)[C@@H]1CCC2=O", "ACHN renal", "> 100 µM"]
]}

###

system: HCT-116 colon; assay: NCI tumour cell line growth inhibition, 48 h

{"columns": ["Molecule", "Assay target", "TGI"],
 "data": [
  ["CC(C)NC(=O)OCc1nnn2c1C(OC(=O)NC(C)C)CC2 (stereo unspecified)", "HCT-116 colon", "> 100 µM"],
  ["COC1OC(OC)C2C(c3c(C)cc(C)cc3C)=NOC12 (stereo unspecified)", "HCT-116 colon", "> 100 µM"],
  ["CCCC(Sc1nc(N)nc2nc[nH]c12)C(=O)O (stereo unspecified)", "HCT-116 colon", "> 100 µM"],
  ["O=c1c2ccccc2oc2c1ccc1ncccc12", "HCT-116 colon", "45.2 µM"],
  ["N#CCCNCCN(CCN(C(=O)Nc1ccccc1)c1ccccc1)C(=O)Nc1ccccc1", "HCT-116 colon", "> 100 µM"],
  ["CCSSCS(C)(=O)=O", "HCT-116 colon", "> 100 µM"],
  ["CCN1CCN(C(=O)[C@]23CC[C@@H](C)[C@H](C)[C@@H]2C2=CC[C@@H]4[C@@]5(C)C/C(=C/c6cccnc6)C(=O)C(C)(C)[C@@H]5CC[C@@]4(C)[C@]2(C)CC3)CC1", "HCT-116 colon", "3.55 µM"],
  ["O=C(Nc1nc2ncn(CCOC(=O)c3ccccc3)c2c(=O)[nH]1)c1ccccc1", "HCT-116 colon", "> 100 µM"],
  ["COc1c(-c2cc(C)c(Cl)c(=O)[nH]2)c(O)c(OC)c2occc12", "HCT-116 colon", "> 100 µM"],
  ["Nc1nc2nc3c(nc2c(=O)[nH]1)CN(c1ccc(C(=O)O)cc1)C3=O", "HCT-116 colon", "> 100 µM"],
  ["O=c1[nH]nc(-c2ccccc2)c(-c2ccccc2)c1-n1nc(-c2ccccc2)c2ccccc2c1=O", "HCT-116 colon", "> 100 µM"],
  ["CN(NC(=O)/C(=C/c1ccc(O)cc1)NC(=O)c1ccccc1)c1ccnc2cc(Cl)ccc12", "HCT-116 colon", "38.2 µM"],
  ["COc1cc(C2c3cc4c(cc3C(O)C3CCC(=O)N23)OCO4)cc(OC)c1OC (stereo unspecified)", "HCT-116 colon", "> 100 µM"],
  ["Cc1c2c(n3c(nc4ccccc43)c1C#N)SCC2", "HCT-116 colon", "> 10 µM"],
  ["NC(=O)C/C=C/CC(N)=O", "HCT-116 colon", "> 100 µM"],
  ["O=C(O)CC(NC(=O)Nc1ccc([N+](=O)[O-])cc1)C(=O)Nc1ccc([N+](=O)[O-])cc1 (stereo unspecified)", "HCT-116 colon", "> 100 µM"],
  ["COC1CCC(=C2C(=O)OC(C)(C)OC2=O)N1 (stereo unspecified)", "HCT-116 colon", "> 100 µM"],
  ["C=CCOc1ccc(C2c3c([nH][nH]c3=O)CC(O)(OCC)C2C(=O)OCC)cc1OC (stereo unspecified)", "HCT-116 colon", "> 100 µM"],
  ["COc1ccc(CCNc2nc3ccccc3c3[nH]c4ccccc4c23)cc1OC", "HCT-116 colon", "3.52 µM"],
  ["CC(C)Oc1cc(OCC(=O)O)cc(C(=O)N(CCC(N)=O)C(=O)Nc2ccc(C(=O)O)cc2OC(C)C)c1", "HCT-116 colon", "> 100 µM"],
  ["Brc1ccc2c(-c3nc(-c4c[nH]c5ccccc45)cs3)c[nH]c2c1", "HCT-116 colon", "> 100 µM"]
]}

###

tested on: SK-OV-3 ovarian; assay: NCI tumour cell line growth inhibition, 48 h

{"columns": ["Molecule", "GI50"],
 "data": [
  ["C=C1C(=O)O[C@@H]2[C@@H]3O[C@@](C)(CC/C=C(\\C)CCC[C@@H]2C)[C@H](O)C[C@@H]13", "13.1 µM"],
  ["Cn1cc(-c2ccc3cc(-c4ccc(CC(=O)Nc5cc(C(C)(C)C)nn5C)cc4)cnc3c2)cn1", "0.109 µM"],
  ["COc1ccc([C@H]2c3cc(OC)c(OC)cc3C=C(C=O)C2CO)cc1OC (stereo partly drawn)", "4.23 µM"],
  ["C=C1C(=O)OC(CCCCCCCC)C1C(=O)O (stereo not drawn)", "34.3 µM"],
  ["O=C(Nc1ccc(Cl)cc1)NS(=O)(=O)c1ccc2c(c1)CCC2", "18 µg/mL"],
  ["O=C1CCC/C=C\\C[C@H]2C=C(Cl)C(=O)/C2=C/C[C@H](CCCCC(F)(F)F)OC(=O)CCC/C=C\\C[C@H]2C=C(Cl)C(=O)/C2=C/C[C@H](CCCCC(F)(F)F)O1", "1.72 µM"],
  ["O=P(O)(O)OC1C(OP(=O)(O)O)C(OP(=O)(O)O)C(OP(=O)(O)O)C(OP(=O)(O)O)C1OP(=O)(O)O (stereo not drawn)", "> 2000 µM"],
  ["c1ccc([CH2][Sn]([CH2]c2ccccc2)([S]c2cccc3cccnc23)[S]c2cccc3cccnc23)cc1", "1.76 µM"],
  ["COc1ccccc1/C=C1\\COc2ccc(O)c(O)c2C1=O", "4.68 µM"],
  ["CC[C@]1(O)C[C@@H]2CN(Cc3c([nH]c4ccccc34)[C@@](C(=O)OC)(c3cc4c(cc3OC)N(C)[C@H]3[C@@](O)(C(=O)OC)[C@H](OC(C)=O)[C@]5(CC)[C@@H]6C[C@@H]6CN6CC[C@]43[C@@H]65)C2)C1", "0.0841 µM"],
  ["Clc1ccc(Cl)c(N/N=C\\c2c[nH]c3ccccc23)c1", "12.8 µM"],
  ["COc1ccc(/C=C2/SC(=Nc3c(C)nn(-c4ccccc4)c3N)NC2=O)cc1", "3.65 µM"],
  ["CC(C)(O)Cn1c(=O)c(Oc2ccc(F)cc2F)cc2cnc(NC3CCOCC3)nc21", "> 25 µM"],
  ["CCN1CCC(C(=O)Nc2n[nH]c3nnc(-c4cccc(F)c4F)cc23)CC1", "2.33 µM"],
  ["Cc1ncc(C(=O)Nc2ccc(CN3CCN(C)CC3)c(C(F)(F)F)c2)cc1C#Cc1c(N)ncc2ccc(C#N)cc12", "1.7 µM"],
  ["C#Cc1cccc(NC(=O)Nc2ccccc2NC(=O)CCl)c1", "> 82.5 µM"],
  ["COc1ccc(NC(=O)c2ccc(NC3=C(Cl)C(=O)N(Cc4ccccc4)C3=O)cc2)cc1", "18.4 µM"],
  ["CCN(CC)CCn1c(=N)n(CC(O)c2ccc(Cl)c(Cl)c2)c2ccccc21 (stereo not drawn)", "11.9 µM"]
]}
